- System: SLC9A1 (Homo sapiens)
- Construct: endogenous in cells; host or cells: HAP1, KBM7 (WT and CRBN knockout)
- Sequence (P19634 whole entry): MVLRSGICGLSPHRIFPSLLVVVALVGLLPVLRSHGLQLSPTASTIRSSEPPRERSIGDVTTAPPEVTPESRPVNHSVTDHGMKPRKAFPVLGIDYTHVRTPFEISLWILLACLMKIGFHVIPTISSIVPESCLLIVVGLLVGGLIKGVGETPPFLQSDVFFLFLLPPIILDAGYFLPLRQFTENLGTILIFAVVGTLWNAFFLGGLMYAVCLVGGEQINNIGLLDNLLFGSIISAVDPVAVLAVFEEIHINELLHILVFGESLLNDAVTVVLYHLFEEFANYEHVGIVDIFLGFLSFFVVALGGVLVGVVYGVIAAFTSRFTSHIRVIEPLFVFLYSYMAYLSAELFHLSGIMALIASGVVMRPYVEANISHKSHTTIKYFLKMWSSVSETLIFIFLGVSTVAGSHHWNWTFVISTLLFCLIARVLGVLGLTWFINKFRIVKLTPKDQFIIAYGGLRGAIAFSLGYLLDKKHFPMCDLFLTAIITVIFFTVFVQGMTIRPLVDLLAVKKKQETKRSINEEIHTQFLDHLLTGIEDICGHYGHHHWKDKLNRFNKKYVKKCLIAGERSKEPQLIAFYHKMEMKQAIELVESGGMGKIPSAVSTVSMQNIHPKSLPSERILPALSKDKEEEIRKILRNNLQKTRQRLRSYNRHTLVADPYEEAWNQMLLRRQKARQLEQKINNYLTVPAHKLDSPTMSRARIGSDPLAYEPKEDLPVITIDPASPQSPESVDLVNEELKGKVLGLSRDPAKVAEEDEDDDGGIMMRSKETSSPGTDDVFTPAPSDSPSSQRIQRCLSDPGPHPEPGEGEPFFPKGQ
- Experiment: Degradation of endogenous SLC9A1 (immunoblot)
- Format: cell-based
- Condition Description: WT KBM7; 0.5 µM d9A1-2 16 hours; bortezomib 0.25 µM, MG-132 1 µM, MLN4924 1 µM, pomalidomide 1 µM, bafilomycin A1 10 µM
Residues, ends and D or L forms follow the SMILES beside them. *: point of attachment. Cbz = O=C(OCc1ccccc1)*
Readout Type: effect of co-treatment on d9A1-2 driven SLC9A1 degradation (chemical rescue)

{"Compound": "CC(C)C[C@H](NC(=O)[C@H](Cc1ccccc1)NC(=O)c1cnccn1)B(O)O [bortezomib]", "Result": "rescued SLCs degradation"}
{"Compound": "CC(C)C[C@@H](C=O)NC(=O)[C@H](CC(C)C)NC(=O)[C@H](CC(C)C)NC(=O)OCc1ccccc1 [MG132] (Cbz-Leu-Leu-Leu-aldehyde)", "Result": "rescued SLCs degradation"}
